Target: CCR5 receptor (Homo sapiens, UniProt P51681)
Sequence (P51681 whole entry): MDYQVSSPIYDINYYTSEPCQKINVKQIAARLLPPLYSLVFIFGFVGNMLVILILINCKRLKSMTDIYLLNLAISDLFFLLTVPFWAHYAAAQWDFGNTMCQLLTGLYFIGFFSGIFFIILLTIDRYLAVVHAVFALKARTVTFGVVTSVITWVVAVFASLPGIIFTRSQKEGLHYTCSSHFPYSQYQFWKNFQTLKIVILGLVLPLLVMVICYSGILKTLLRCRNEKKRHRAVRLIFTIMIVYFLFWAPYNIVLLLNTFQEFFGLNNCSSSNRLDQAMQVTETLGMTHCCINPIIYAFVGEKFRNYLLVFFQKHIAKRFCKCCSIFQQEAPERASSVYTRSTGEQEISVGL
Test: Aequorin-based calcium flux assay, agonist mode
Assay type: cell-based
Set-up: expressed in transfected cells; host or cells: Chinese hamster ovary (CHO) cells coexpressing apoaequorin and Gα16
Details: CHO cells expressing CCR5, apoaequorin and Gα16; read-out: Aequorin/Ca++ assay EC50
pEC50: −log10 of the molar value.
Values of pEC50 greater than or equal to 7 map to MET; values below map to NOT MET.

[
  {
    "compound": "O=C(Cc1ccc(Cl)cc1)NC1CCN(CCC(c2ccccc2)c2ccccc2)CC1 [Compound 1]",
    "label.class": "MET"
  },
  {
    "compound": "C[C@H](CN(c1cccc(F)c1)S(=O)(=O)Cc1ccccc1)N1CCC(NC(=O)Cc2ccc(C(F)(F)F)cc2)CC1 [Compound 90]",
    "label.class": "NOT MET"
  },
  {
    "compound": "COc1ccc(CC(=O)NC2CCN(CCC(c3ccccc3)c3ccccc3)CC2)cc1 [Compound 3]",
    "label.class": "MET"
  },
  {
    "compound": "C[C@H](CN(c1cccc(F)c1)S(=O)(=O)Cc1ccccc1)N1CCC(NC(=O)Cc2ccc(F)cc2F)CC1 [Compound 81]",
    "label.class": "MET"
  },
  {
    "compound": "CS(=O)(=O)c1ccc(CC(=O)NC2CCN(CCC(c3ccccc3)c3ccccc3)CC2)cc1 [Compound 2]",
    "label.class": "MET"
  },
  {
    "compound": "O=C(CC1CCCCC1)NC1CCN(CCC(c2ccccc2)c2ccccc2)CC1 [Compound 28]",
    "label.class": "NOT MET"
  },
  {
    "compound": "C[C@H](CN(c1ccccc1)S(=O)(=O)Cc1ccccc1)N1CCC(NC(=O)Cc2ccc(C#N)cc2)CC1 [Compound 93]",
    "label.class": "MET"
  },
  {
    "compound": "O=C(Cc1ccccc1)NC1CCN(CCC(c2ccccc2)c2ccccc2)CC1 [Compound 7]",
    "label.class": "MET"
  },
  {
    "compound": "C[C@H](CN(c1ccccc1)S(=O)(=O)Cc1ccccc1)N1CCC(NC(=O)Cc2ccc(F)cc2F)CC1 [Compound 113]",
    "label.class": "MET"
  },
  {
    "compound": "C[C@H](CN(c1cccc(F)c1)S(=O)(=O)Cc1ccccc1)N1CCC(NC(=O)Cc2ccccc2F)CC1 [Compound 80]",
    "label.class": "MET"
  }
]
